Assay: Kinetic assay of purified DAOCS with penicillin N as main substrate
Format: biochemical
Details: for penicillin N; 0.5 μg purified DAOCS, 30° C., 10 minutes
property.name: kcat (S^−1)
All answers are understood in S^−1, so give the number only.

# query: kcat of entry EC12: mutated penicillin expandase (DAOCS) with substitution L277Q (protein, UniProt P18548 1-311, looked up, variant L277Q) Deacetoxycephalosporin C …: MDTTVPTFSLAELQQGLHQDEFRRCLRDKGLFYLTDCGLTDTELKSAKDLVIDFFEHGSEAEKRAVTSPVPTMRRGFTGLESESTAQITNTGSYSDYSMCYSMGTADNLFPSGDFERIWTQYFDRQYTASRAVAREVLRATGTEPDGGVEAFLDCEPLLRFRYFPQVPEHRSAEEQPLRMAPHYDLSMVTLIQQTPCANGFVSLQAEVGGAFTDLPYRPDAVLVFCGAIATLVTGGQVKAPRHHVAAPRRDQIAGSSRTSSVFFLRPNADFTFSVPQARECGFDVSLDGETATFQDWIGGNYVNIRRTSKA
0.297
